Biological target: Hex A (Homo sapiens, UniProt P06865+P07686)
Sequence (P06865 89-529): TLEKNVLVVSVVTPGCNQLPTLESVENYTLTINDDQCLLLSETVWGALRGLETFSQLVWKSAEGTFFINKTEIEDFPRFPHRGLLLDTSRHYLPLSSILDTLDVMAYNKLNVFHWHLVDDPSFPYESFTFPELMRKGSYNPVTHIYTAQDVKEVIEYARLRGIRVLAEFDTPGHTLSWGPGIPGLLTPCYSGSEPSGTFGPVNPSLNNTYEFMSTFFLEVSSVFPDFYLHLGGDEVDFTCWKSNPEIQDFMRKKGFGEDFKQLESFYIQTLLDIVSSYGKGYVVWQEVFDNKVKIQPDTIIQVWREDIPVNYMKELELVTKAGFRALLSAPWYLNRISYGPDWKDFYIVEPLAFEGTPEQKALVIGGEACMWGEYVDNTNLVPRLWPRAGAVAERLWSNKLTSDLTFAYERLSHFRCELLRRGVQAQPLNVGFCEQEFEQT
Sequence (P07686 122-311 limits assumed): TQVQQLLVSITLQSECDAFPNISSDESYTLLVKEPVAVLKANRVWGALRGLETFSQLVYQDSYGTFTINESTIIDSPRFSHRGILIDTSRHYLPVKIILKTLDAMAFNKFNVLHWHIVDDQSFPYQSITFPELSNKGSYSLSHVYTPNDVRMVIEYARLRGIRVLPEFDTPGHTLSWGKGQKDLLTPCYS
Sequence (P07686 315-556 limits assumed): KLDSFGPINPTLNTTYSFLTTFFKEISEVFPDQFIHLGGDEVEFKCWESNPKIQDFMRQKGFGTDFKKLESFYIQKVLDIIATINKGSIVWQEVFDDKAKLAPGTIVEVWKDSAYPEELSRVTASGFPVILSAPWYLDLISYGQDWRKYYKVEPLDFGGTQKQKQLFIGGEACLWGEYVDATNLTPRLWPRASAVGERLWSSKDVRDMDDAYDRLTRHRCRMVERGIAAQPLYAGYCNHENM
Experiment: Hex A inhibition (IC50 from dose response curves of Hex A residual activity);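 also: remaining Hex A enzyme activity recorded across rising inhibitor doses, with dose response curves run at pH 6.5 and again at pH 4.5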
Conditions: IC50 (μM ± Err), Hex A inhibition, values determined in Example 3; pH not given
Cut-off 40 µM on IC50: below means T, at or above means F.

These recorded examples may help you get a feel for the data.
• CCCc1nc(N)nc(N)c1-c1ccc(C)cc1 [zjm1-137] = T
• CCCc1nc(N)nc(N)c1-c1cccc(C)c1 [ksh3.33d] = F
• CCCc1nc(N)nc(N)c1-c1cc(C)cc(C)c1 [ksh3.33e] = T
• CCc1nc(N)nc(N)c1-c1ccccc1C [ksh3-19c] = F

Q: Please state whether IC50 is below 40 µM for CC(C)c1nc(N)nc(N)c1-c1ccc(Cl)cc1 [jts20]
Ans: F
